FYI, the data here is from patent US8580556B2.

Tested on: tetA promoter (PtetA)-lacZ reporter in E. coli KM3
Format: cell-based
Settings: M9 assay plates, no inducer, 84 hr at 30° C., colony color intensity by ImageJ
Reported Control 84 hr (colony color intensity, background activity without inducer) values follow for various molecules
Output: the number by itself.

molecule: L6-2C09 (protein, Sulfonylurea responsive repressor L6-2C09) MGSRLDKSKVINSALELLNEVGIEGLTTRKLAQKLGVEQPTLYWHVKNKRALLDALAIEMMDRHQTHYCPLEGESWQDFLRNTAKSMRCALLSHRDGAKVCLGTRWTEQLYETAENQLAFLCQQGFSLENALYAMSAVRVFTLGCVLFDQELQVAKEERETPTTASMPPLLRQAWELKDHQGAEPAFLFGLELIICGLEKQLKCESGS
measured: 5.2
//
molecule: L6-5G06 (protein, Sulfonylurea responsive repressor L6-5G06) MGSRLDKSKVINSALELLNEVGIEGLTTRKLAQKLGVEQPTLYWHVKNKRALLDALAIEMMDRHQTHYCPLEGESWQDFLRNNAKSMRCALLSHRDGAKVCLGTRWTEQQYETAENQLAFLCQQGFSLENALYAVSAVRVFTLGCVLFDQELQVAKEERETPTTASMPPLLRQGWELKDHQGAEPAFLFGLELIICGLEKQLKCESGS
measured: 7.0
//
molecule: L6-6F07 (protein, Sulfonylurea responsive repressor L6-6F07) MGSRLDKSKVINSALELLNEVGIEGLTTRKLAQKLGVEQPTLYWHVKNKRALLDALAIEMMDRHATHLCPLEGESWQDFLRNTAKSMRCALLSHRDGAKVCLGTRWTEQQYESAENMLAFLCQQGFSLENALYAMSAVRVFTLGCVLFDQESQVAKEERETPTTASMPPLLRQAWELKDHQGAEPAFLFGLELIICGLEKQLKCESGS
measured: 5.1

Would you kindly look at the next entry?
Q) Tell us which Control 84 hr (colony color intensity, background activity without inducer) value is on record for L6-3H02: SuR polypeptide, SEQ ID NO: 94 (protein, Sulfonylurea responsive repressor L6-3H02) MGSRLDKSKVINSALELLNEVGIEGLTTRKLAQKLGVEQPTLYWHVKNKRALLDALAIEMMDRHATHYCPLEGESWQDFLRNTAKSMRCALLSHRDGAKVCLGTRWTEQHYESAENMLAFLCQQGFSLENALYAVSAVRVFTLGCVLFDQESQVAKEERETPTTASMPPLVRQAWELKVHQGAEPAFLFGLELIICGLEKQLKCESGS
A) 5.6
